System Name: Growth hormone secretagogue receptor type 1 (Homo sapiens, UniProt Q92847)
Sequence (Q92847 whole entry): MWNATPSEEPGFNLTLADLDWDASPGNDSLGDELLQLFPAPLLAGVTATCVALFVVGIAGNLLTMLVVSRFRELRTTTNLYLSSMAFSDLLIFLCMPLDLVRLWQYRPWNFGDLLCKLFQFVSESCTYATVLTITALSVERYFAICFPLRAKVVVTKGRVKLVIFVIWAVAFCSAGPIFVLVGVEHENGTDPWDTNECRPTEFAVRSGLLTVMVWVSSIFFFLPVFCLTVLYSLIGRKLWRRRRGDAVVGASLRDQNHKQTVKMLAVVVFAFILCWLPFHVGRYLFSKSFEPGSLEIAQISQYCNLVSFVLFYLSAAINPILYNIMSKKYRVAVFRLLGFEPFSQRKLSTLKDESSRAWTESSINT
Assay Overview: Agonist activity at human GHS-R1a expressed in HEK293T cells after 45 mins by HTRF-based IP3 turnover assay
Format: functional, cell-based
Test Context: HEK-293T
Property: Emax (%)
The reply should be a number in %, with the unit left off.

In the examples that follow, each entry is paired with its recorded Emax.
{"Compound": "COc1ccc(Cn2c([C@@H](Cc3c[nH]c4ccccc34)NC=O)nnc2[C@@H](Cc2c[nH]c3ccccc23)NC(=O)[C@@H](N)CCCCN)cc1", "Emax, %": 89}
{"Compound": "COc1ccc(Cn2c(C(Cc3c[nH]c4ccccc34)NC(=O)C3CCNCC3)nnc2[C@@H](Cc2c[nH]c3ccccc23)NC(=O)C(CC(C)C)NC(=O)C(CC(C)C)NC(C)=O)cc1 (single isomer, unassigned)", "Emax, %": 108}

Req: Give the reported Emax for COc1ccc(Cn2c([C@@H](Cc3c[nH]c4ccccc34)NC(C)=O)nnc2[C@@H](Cc2c[nH]c3ccccc23)NC(=O)[C@@H](N)CCCCN)cc1 (system: Growth hormone secretagogue receptor type 1 (Homo sapiens, UniProt Q92847)).
Resp: 89

###

In this section we review reported IC50 values for a set of molecules.
System Name: Growth hormone secretagogue receptor type 1 (Homo sapiens, UniProt Q92847)
Assay Overview: Antagonist activity at human GHS-R1a transfected in mouse LTK cells after 6 hrs by CRE/luciferase reporter gene assay in presence of ghrelin and rolipram
Format: functional, cell-based

{"Chem Smiles": "COc1ccc(Cn2c([C@@H](Cc3ccccc3)NC=O)nnc2[C@@H](Cc2c[nH]c3ccccc23)NC(=O)C(C)(C)N)cc1", "Property": "IC50", "Result": "113 nM"}
{"Chem Smiles": "COc1ccc(Cn2c([C@@H](Cc3ccccc3)NC(C)=O)nnc2[C@@H](Cc2c[nH]c3ccccc23)NC(=O)C2=CCCCO2)cc1", "Property": "IC50", "Result": "3 nM"}
{"Chem Smiles": "COc1ccc(Cn2c([C@@H](Cc3ccccc3)NC(C)=O)nnc2[C@@H](Cc2c[nH]c3ccccc23)NC(=O)C(C)(C)N)cc1", "Property": "IC50", "Result": "70 nM"}

Req: Need IC50, item COc1ccc(Cn2c([C@@H](Cc3c[nH]c4ccccc34)NC=O)nnc2[C@@H](Cc2c[nH]c3ccccc23)NC(=O)C(C)(C)N)cc1
Resp: 60 nM

Req: Now consider COc1ccc(Cn2c([C@@H](Cc3ccccc3)NC(C)=O)nnc2[C@@H](Cc2c[nH]c3ccccc23)NC(=O)c2cc(F)cc(F)n2)cc1 .
Resp: 4 nM

Req: Now consider COc1ccc(Cn2c([C@@H](Cc3ccccc3)NC=O)nnc2[C@@H](Cc2c[nH]c3ccccc23)NC(=O)c2ccccn2)cc1 .
Resp: 8 nM

###

In this section we review reported Ki values for a set of compounds.
System Name: Growth hormone secretagogue receptor type 1 (Homo sapiens)
Assay Overview: Competitive binding affinity to human SNAP-tagged GHS-R1a expressed in HEK293T cells incubated at 4 degC for 3 hrs or at room temperature for 1 hr by Tag-lite assay
Type: cell-based, HEK-293T
The reply should be a number in nM, with the unit left off.

In the examples that follow, each entry is paired with its recorded Ki.
{"Compound": "COc1ccc(Cn2c(C(Cc3c[nH]c4ccccc34)NC(=O)C3CCNCC3)nnc2[C@@H](Cc2c[nH]c3ccccc23)NC(=O)C(CC(C)C)NC(=O)C(CC(C)C)NC(C)=O)cc1 (single isomer, unassigned)", "Property": "Ki", "Quantitative Readout": 2}
{"Compound": "COc1ccc(Cn2c([C@@H](Cc3c[nH]c4ccccc34)NC(=O)[C@H](CC(C)C)NC(=O)[C@H](CC(C)C)NC(C)=O)nnc2[C@@H](Cc2c[nH]c3ccccc23)NC(=O)C(C)(C)O)cc1", "Property": "Ki", "Quantitative Readout": 3}
{"Compound": "CC(C)C[C@H](NC(=O)[C@H](CC(C)C)NC(=O)[C@@H](Cc1c[nH]c2ccccc12)NC(=O)[C@H](Cc1ccccc1)NC(=O)[C@@H](Cc1c[nH]c2ccccc12)NC(=O)[C@@H](N)CCCCN)C(N)=O", "Property": "Ki", "Quantitative Readout": 255}
{"Compound": "COc1ccc(Cn2c([C@@H](Cc3c[nH]c4ccccc34)NC(C)=O)nnc2[C@@H](Cc2c[nH]c3ccccc23)NC(=O)[C@@H](N)CCCCN)cc1", "Property": "Ki", "Quantitative Readout": 2.5}
{"Compound": "COc1ccc(Cn2c([C@@H](Cc3c[nH]c4ccccc34)NC(=O)CO)nnc2[C@@H](Cc2c[nH]c3ccccc23)NC(=O)[C@H](CC(C)C)NC(=O)[C@H](CC(C)C)NC(C)=O)cc1", "Property": "Ki", "Quantitative Readout": 3}

Shift focus to the following entry.
Req: Need Ki, item COC(=O)C(CC(C)C)C(=O)N[C@H](Cc1c[nH]c2ccccc12)c1nnc([C@@H](Cc2c[nH]c3ccccc23)NC(=O)[C@@H](N)CCCCN)n1Cc1ccc(OC)cc1 (mixture of isomers)
Resp: 17

The measured values listed here are drawn from ChEMBL document CHEMBL3797137.
